- method-description: Effect of food on plasma pharmacokinetics after single oral dose of SF2a/b (Example 2)
- Type: in vivo, human
- stated-conditions: both sexes, human, plasma, oral, 50 mg, 50 mg SF2a, standardized breakfast; linear mixed effects model (Table 5C); read-out: AUC∞, Geometric Mean Treatment I
property: AUC(0-inf) (ng·h/mL)
Give the quantity in ng·h/mL, number only.

Return reported AUC(0-inf). Input compound: COc1cc(NC(C(=O)c2c[nH]c3ccc(OC(F)(F)F)cc23)c2ccc(Cl)cc2OC)cc(S(C)(=O)=O)c1 (stereo not shown)
22700

====

- method-description: Effect of food on plasma pharmacokinetics after single oral dose of SF2a/b (Example 2)
- Format: in vivo, human
- stated-conditions: both sexes, human, plasma, oral, 800 mg, Treatment D: single 800 mg (SF2b), fasted; read-out: AUC∞, Median
- Method: The effect of food on the pharmacokinetics (PK) of Compound (a) was assessed in healthy participants after a single oral dose of SF2a/b, described in Example 1, administered at different dose levels in a randomized single dose, 2-period crossover study. […]
property: AUC(0-inf)

Return reported AUC(0-inf). Input compound: COc1cc(NC(C(=O)c2c[nH]c3ccc(OC(F)(F)F)cc23)c2ccc(Cl)cc2OC)cc(S(C)(=O)=O)c1 (stereo not shown)
144 µg·h/mL

====

- method-description: Effect of food on plasma pharmacokinetics after single oral dose of SF2a/b (Example 2)
- Format: in vivo, human
- stated-conditions: both sexes, human, plasma, oral, 200 mg, 200 mg SF2b, fed, low-fat, high-calorie breakfast; read-out: AUC∞, Geometric LS Means Treatment O
property: AUC(0-inf) (ng·h/mL)
Give the quantity in ng·h/mL, number only.

Return reported AUC(0-inf). Input compound: COc1cc(NC(C(=O)c2c[nH]c3ccc(OC(F)(F)F)cc23)c2ccc(Cl)cc2OC)cc(S(C)(=O)=O)c1 (stereo not shown) [Compound (a)]
69300

====

- method-description: Effect of food on plasma pharmacokinetics after single oral dose of SF2a/b (Example 2)
- Assay type: in vivo, human
- stated-conditions: both sexes, human, plasma, oral, 200 mg, 200 mg SF2b, fasted; linear mixed effects model (Table 5B); read-out: AUClast, Geometric Mean Treatment F
property: AUC(0-t) (ng·h/mL)
Give the quantity in ng·h/mL, number only.

Return reported AUC(0-t). Input compound: COc1cc(NC(C(=O)c2c[nH]c3ccc(OC(F)(F)F)cc23)c2ccc(Cl)cc2OC)cc(S(C)(=O)=O)c1 (stereo not shown)
60500

====

- method-description: Plasma pharmacokinetics with loading dose and weekly or twice weekly maintenance dosing, fed (Example 5)
- Type: in vivo, human
- stated-conditions: human, plasma, oral, Panel I (450 mg BID Days 1-2, then 900 mg Q7D; SF2a/b, fed), Day 17; read-out: Mean Cmax (SD)
- Description: A pharmaceutical formulation comprising Compound (a) as described in Example 2 (SF2a/b) was administered as an oral dosage form, to healthy adult participants, in a fed state. […]
property: Cmax (ng/mL)
Give the quantity in ng/mL, number only.

Return reported Cmax. Input compound: COc1cc(NC(C(=O)c2c[nH]c3ccc(OC(F)(F)F)cc23)c2ccc(Cl)cc2OC)cc(S(C)(=O)=O)c1 (stereo not shown) [Compound (a)]
4280

====

- method-description: Plasma pharmacokinetics with loading dose and weekly or twice weekly maintenance dosing, fed (Example 5)
- Assay type: in vivo, human
- stated-conditions: human, plasma, oral, Panel IV (150 mg BID Days 1-2, then 150 mg Q3D/Q4D; SF2a/b, fed), Day 1; read-out: Median tmax (min-max)
property: Tmax (h)
Give the quantity in h, number only.

Return reported Tmax. Input molecule: COc1cc(NC(C(=O)c2c[nH]c3ccc(OC(F)(F)F)cc23)c2ccc(Cl)cc2OC)cc(S(C)(=O)=O)c1 (stereo not shown)
5

====

- method-description: Effect of food on plasma pharmacokinetics after single oral dose of SF2a/b (Example 2)
- Type: in vivo, human
- stated-conditions: both sexes, human, plasma, oral, 800 mg, 800 mg SF2b, fasted; linear mixed effects model (Table 5A); read-out: AUClast, Geometric Mean Treatment D
property: AUC(0-t) (µg·h/mL)
Give the quantity in µg·h/mL, number only.

Return reported AUC(0-t). Input molecule: COc1cc(NC(C(=O)c2c[nH]c3ccc(OC(F)(F)F)cc23)c2ccc(Cl)cc2OC)cc(S(C)(=O)=O)c1 (stereo not shown)
140

====

- method-description: Plasma pharmacokinetics with loading dose and weekly or twice weekly maintenance dosing, fed (Example 5)
- Assay type: in vivo, human
- stated-conditions: human, plasma, oral, 450 mg, Panel II (450 mg BID Days 1-2, then 450 mg Q3D/Q4D; SF2a/b, fed), Day 1; read-out: Mean Cmax (SD)
property: Cmax (ng/mL)
Give the quantity in ng/mL, number only.

Return reported Cmax. Input compound: COc1cc(NC(C(=O)c2c[nH]c3ccc(OC(F)(F)F)cc23)c2ccc(Cl)cc2OC)cc(S(C)(=O)=O)c1 (stereo not shown) [Compound (a)]
1960

====

- method-description: Plasma pharmacokinetics with loading dose and weekly or twice weekly maintenance dosing, fed (Example 5)
- Type: in vivo, human
- stated-conditions: human, plasma, oral, 150 mg, Panel III (150 mg BID Days 1-2, then 300 mg Q7D; SF2a/b, fed), Day 1; read-out: Mean AUCτ (SD)
property: AUC (µg·h/mL)
Give the quantity in µg·h/mL, number only.

Return reported AUC. Input compound: COc1cc(NC(C(=O)c2c[nH]c3ccc(OC(F)(F)F)cc23)c2ccc(Cl)cc2OC)cc(S(C)(=O)=O)c1 (stereo not shown)
5.68

====

- method-description: Effect of food on plasma pharmacokinetics after single oral dose of SF2a/b (Example 2)
- Assay type: in vivo, human
- stated-conditions: both sexes, human, plasma, oral, 800 mg, Treatment D: single 800 mg (SF2b), fasted; read-out: tmax, Median
property: Tmax (h)
Give the quantity in h, number only.

Return reported Tmax. Input compound: COc1cc(NC(C(=O)c2c[nH]c3ccc(OC(F)(F)F)cc23)c2ccc(Cl)cc2OC)cc(S(C)(=O)=O)c1 (stereo not shown) [Compound (a)]
8

====

- method-description: Plasma pharmacokinetics with loading dose and weekly or twice weekly maintenance dosing, fed (Example 5)
- Type: in vivo, human
- stated-conditions: human, plasma, oral, 150 mg, Panel IV (150 mg BID Days 1-2, then 150 mg Q3D/Q4D; SF2a/b, fed), Day 27; read-out: Mean AUC24 h (SD)
property: AUC(0-t) (ng·h/mL)
Give the quantity in ng·h/mL, number only.

Return reported AUC(0-t). Input molecule: COc1cc(NC(C(=O)c2c[nH]c3ccc(OC(F)(F)F)cc23)c2ccc(Cl)cc2OC)cc(S(C)(=O)=O)c1 (stereo not shown)
26000

====

- method-description: Effect of food on plasma pharmacokinetics after single oral dose of SF2a/b (Example 2)
- Format: in vivo, human
- stated-conditions: both sexes, human, plasma, oral, 200 mg, 200 mg SF2b, fed, low-fat, low-calorie breakfast; read-out: AUClast, Geometric LS Means Treatment N
property: AUC(0-t) (ng·h/mL)
Give the quantity in ng·h/mL, number only.

Return reported AUC(0-t). Input compound: COc1cc(NC(C(=O)c2c[nH]c3ccc(OC(F)(F)F)cc23)c2ccc(Cl)cc2OC)cc(S(C)(=O)=O)c1 (stereo not shown) [Compound (a)]
71900

====

- method-description: Effect of food on plasma pharmacokinetics after single oral dose of SF2a/b (Example 2)
- Format: in vivo, human
- stated-conditions: both sexes, human, plasma, oral, 800 mg, Treatment E: single 800 mg (SF2b), fed, standardized breakfast; read-out: Cmax, Geo. Mean
property: Cmax (ng/mL)
Give the quantity in ng/mL, number only.

Return reported Cmax. Input compound: COc1cc(NC(C(=O)c2c[nH]c3ccc(OC(F)(F)F)cc23)c2ccc(Cl)cc2OC)cc(S(C)(=O)=O)c1 (stereo not shown)
3400

====

- method-description: Plasma pharmacokinetics with loading dose and weekly or twice weekly maintenance dosing, fed (Example 5)
- Type: in vivo, human
- stated-conditions: human, plasma, oral, 150 mg, Panel IV (150 mg BID Days 1-2, then 150 mg Q3D/Q4D; SF2a/b, fed), Day 20; read-out: Mean Cmax (SD)
property: Cmax
Please append the unit to your numeric answer.

Return reported Cmax. Input compound: COc1cc(NC(C(=O)c2c[nH]c3ccc(OC(F)(F)F)cc23)c2ccc(Cl)cc2OC)cc(S(C)(=O)=O)c1 (stereo not shown)
1200 ng/mL

====

- method-description: Plasma pharmacokinetics with loading dose and weekly or twice weekly maintenance dosing, fed (Example 5)
- Type: in vivo, human
- stated-conditions: human, plasma, oral, 150 mg, Panel IV (150 mg BID Days 1-2, then 150 mg Q3D/Q4D; SF2a/b, fed), Day 1; read-out: Mean Cmax (SD)
property: Cmax
Please append the unit to your numeric answer.

Return reported Cmax. Input compound: COc1cc(NC(C(=O)c2c[nH]c3ccc(OC(F)(F)F)cc23)c2ccc(Cl)cc2OC)cc(S(C)(=O)=O)c1 (stereo not shown)
753 ng/mL
